Source listed as paper PMC4188734.

- target under test: His-Grp94-MC (337–765) (canine, UniProt P41148 337-765)
- Sequence (P41148 337-765): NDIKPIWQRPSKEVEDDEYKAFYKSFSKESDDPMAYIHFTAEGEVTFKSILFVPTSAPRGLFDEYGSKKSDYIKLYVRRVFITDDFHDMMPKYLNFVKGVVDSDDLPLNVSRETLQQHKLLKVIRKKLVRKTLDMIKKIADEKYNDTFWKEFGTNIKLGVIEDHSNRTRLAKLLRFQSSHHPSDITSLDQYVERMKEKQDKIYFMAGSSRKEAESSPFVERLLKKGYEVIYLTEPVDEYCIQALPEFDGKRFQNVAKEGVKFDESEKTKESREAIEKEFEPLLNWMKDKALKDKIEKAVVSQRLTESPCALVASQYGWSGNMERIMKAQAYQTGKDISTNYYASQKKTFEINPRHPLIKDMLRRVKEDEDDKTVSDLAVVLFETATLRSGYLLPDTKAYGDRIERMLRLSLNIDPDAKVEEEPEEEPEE
- assay protocol: ITC
parameter measured: Kd (µM)
Output spec: scalar in µM, unitless text.

Query block: Returns the measured Kd for the input binder. Input: OS-9 CTE (589–666) (domain or fragment, rat, UniProt Q5RKH6 589-666, looked up) KIEIKIVRPGAEGKEEDTRWLTDEDTRNLKEIFFNILVQGAEEANKERQRQSELESNYRRVWGSPGGEDTGDLDEFDF
Result block: 22.4
